- targetDesc: UniProtKB Q72874
I'd appreciate it if you marked entries t when Ki is lower than 1 nM and f when it is not.

Problem: Is it true that Ki reported for "CC(C)[C@H](C)C(=O)NC(=O)[C@H]([O-])[C@H](O)[C@@H](O)[C@@H](Oc1ccc(C2=CC=[S+]C2)cc1)C(=O)NC(=O)[C@@H](C)C(C)C" is less than 1 nM?
Solution: f

Problem: Is Ki of Cc1cc(NS(=O)(=O)c2ccc(N)cc2)no1 [SULFAMETHOXAZOLE] strictly below 1 nM?
Solution: f

Problem: Does the reported Ki of CC(NO)c1cccc(CN2[C@H](COc3ccccc3)[C@H](O)[C@@H](O)[C@@H](COc3ccccc3)N(Cc3cccc(C(C)NO)c3)S2(=O)=O)c1 (stereo not given in full) stay below 1 nM?
Solution: f

Problem: Bench note: check whether "CC(C)[C@H](C)C(=O)NC(=O)[C@H](O)[C@H](O)[C@@H](O)[C@@H](Oc1ccccc1)C(=O)NC(=O)[C@@H](C)C(C)C" shows Ki below 1 nM
Solution: t

Problem: For this compound, is Ki lower than 1 nM? CC(C)[C@H](C)C(=O)NC(=O)[C@H](O)[C@H](O)[C@@H](O)[C@@H](Oc1ccccc1)C(=O)NC1c2ccccc2C[C@@H]1O (stereo not given in full)
Solution: t

###

Please respond with reported pEC50 for every item in the list.
- Test system: MT4
- protocolText: Effective dose of compound required to inhibit replication of human immunodeficiency virus type 1 in MT-4 cells
- Type: functional
- conditionSet: read-out: ED50 (the source's name)
The read-out pEC50 is expressed as -log10 of concentration in moles per litre.

Problem: So what pEC50 did "CC(C)[C@H](C)C(=O)NC(=O)[C@H]([O-])[C@H](O)[C@@H](O)[C@@H](Oc1ccc(C2=CC=[S+]C2)cc1)C(=O)NC(=O)[C@@H](C)C(C)C" get with MT4?
Solution: 7.40

Problem: // lookup pEC50 | system=MT4 | key= "CC(C)[C@H](C)C(=O)NC(=O)[C@H](O)[C@H](O)[C@@H](O)[C@@H](Oc1ccc(-c2nccs2)cc1)C(=O)NC(=O)[C@@H](C)C(C)C"
Solution: 6.62

Problem: Given the entry "COC(=O)/C=C/c1ccc(O[C@@H](C(=O)NC(=O)[C@@H](C)C(C)C)[C@H](O)[C@@H](O)[C@@H](O)C(=O)NC(=O)[C@@H](C)C(C)C)cc1" , what pEC50 was observed with MT4?
Solution: 5.59

###

- targetDesc: Human immunodeficiency virus type 1 protease (Human immunodeficiency virus 1, UniProt Q72874)
measurementName: pKi
Units for pKi: none; it is -log10 of a concentration expressed in mol/L.

Problem: Entry "CC(C)[C@H](C)C(=O)NC(=O)[C@H](O)[C@H](O)[C@@H](O)[C@@H](Oc1ccc(-c2cccc([N+](=O)[O-])c2)cc1)C(=O)NC(=O)[C@@H](C)C(C)C" : reported pKi = ?
Solution: 8.85

Problem: // returns reported pKi for input "CC(C)[C@H](C)C(=O)NC(=O)[C@H](O)[C@@H](O)[C@H](O)[C@@H](Oc1ccccc1)C(=O)NC(=O)[C@@H](C)C(C)C"
Solution: 7.40

Problem: For the molecule "CC(C)[C@H](C)C(=O)NC(=O)[C@H](O)[C@H](O)[C@@H](O)[C@@H](Oc1ccc(-c2nccs2)cc1)C(=O)NC(=O)[C@@H](C)C(C)C" , what pKi is on record?
Solution: 9.26

Problem: Fill in: pKi of "CC(C)[C@H](C)C(=O)NC(=O)[C@H](O)[C@H](O)[C@@H](O)[C@@H](Oc1ccc(-c2ccccn2)cc1)C(=O)NC(=O)[C@@H](C)C(C)C" is ___
Solution: 9.21

Problem: Query: pKi; subject: O=C(NC1c2ccccc2C[C@@H]1O)[C@H](O)[C@H](O)[C@@H](O)[C@@H](Oc1ccccc1)C(=O)NC1c2ccccc2C[C@@H]1O (some centres not stated)
Solution: 9.22

Problem: So what does the record say about pKi for "CC(C)[C@H](C)C(=O)NC(=O)[C@H](O)[C@H](O)[C@@H](O)[C@@H](Oc1ccc(CCc2ccccc2)cc1)C(=O)NC(=O)[C@@H](C)C(C)C" ?
Solution: 9.10

Problem: pKi for "COC(=O)N[C@H](C(=O)N[C@@H](Cc1ccccc1)[C@@H](O)CN(Cc1ccc(-c2ccccn2)cc1)NC(=O)[C@@H](NC(=O)OC)C(C)(C)C)C(C)(C)C" ?
Solution: 9.62

Problem: Suppose we examine the molecule "CC(C)[C@H](C)C(=O)NC(=O)[C@H](O)[C@H](O)[C@@H](O)[C@@H](Oc1ccc(C2=C(O)C(=O)CCC2)cc1)C(=O)NC(=O)[C@@H](C)C(C)C" ; what pKi value has been reported?
Solution: 9.52

Problem: Name the reported pKi value associated with the molecule "CC(C)[C@H](C)C(=O)NC(=O)[C@H](O)[C@H](O)[C@@H](O)[C@@H](Oc1ccc(Br)cc1)C(=O)NC(=O)[C@@H](C)C(C)C"
Solution: 9.52

Problem: Entry under review: "COC(=O)/C=C/c1ccc(O[C@@H](C(=O)NC(=O)[C@@H](C)C(C)C)[C@H](O)[C@@H](O)[C@@H](O)C(=O)NC(=O)[C@@H](C)C(C)C)cc1" . Reported pKi?
Solution: 10.05

Problem: Recorded pKi for "CC(C)CN(C[C@@H](O)[C@H](Cc1ccccc1)NC(=O)O[C@H]1CCOC1)S(=O)(=O)c1ccc(N)cc1" , please?
Solution: 9.64

Problem: Looking for the measured pKi of "C[C@@H](Cc1ccc(O)cc1)C(=O)NC(=O)[C@H](O)[C@H](O)[C@@H](O)[C@@H](Oc1ccccc1)C(=O)NC(=O)[C@@H](C)Cc1ccc(O)cc1" , can you help?
Solution: 5.30
